# assayDetails: qHTS assay for MDR1-selective chemotherapeutics: Primary screen using the drug-selected MDR subline cells KB-V1; further: nearly all actives have a fitted effect of over 60% in size
# conditionSummary: KB-V1 MDR cells viability, CellTiter-Glo, 72 h; series mostly up to 46.1 µM
Among all 400,000 compounds or so, about 13,000 (3.2%) were called active. Another 18% or so got no clear call; they are omitted. The call rests on the fitted dose curve; in most records, active means well fitted cell-killing curve with a large enough effect; inconclusive means small, poorly fitted or top-dose-only effect, or effect the other way; inactive means flat fitted curve, though single readings scatter. Only a selection was taken, and actives are over-represented in it overall.
Parameter call: string, one of True (active), False (inactive)

Take a look at these entries with their results.
{"molecule": "COc1ccc(CC(=O)NC(C)c2ccc(Cl)c(Cl)c2)cc1S(=O)(=O)N1CCOCC1 (stereo unspecified)", "categoryLabel": "True"}
{"molecule": "CC1(Oc2ccccc2-c2ccno2)CCN(Cc2ccc(-c3ccccc3)o2)C1 (stereo unspecified)", "categoryLabel": "False"}
{"molecule": "COc1ccc(Cl)cc1NC(=O)COC(=O)C(CC(C)C)N1C(=O)C2CC=CCC2C1=O (stereo unspecified)", "categoryLabel": "True"}
{"molecule": "CCN(CCN(C)C)C(=O)c1ccc2nc(C)c(N(C)C(=O)CCc3ccccc3)n2c1", "categoryLabel": "False"}
{"molecule": "O=C(CN1CCN(S(=O)(=O)c2ccc3ccccc3c2)CC1)NC(=O)NC1CCCCC1", "categoryLabel": "True"}

Status in this test for CC1(C)OC(=O)C2=C(C[C@@H](C3CCCCC3)O[C@@H]2c2ccc(Cl)cc2)O1 ?
False

Status in this test for CC(C)(C)C1CCC(=O)N2CCC[C@]2(c2ccccc2)C1 (stereo partly specified) ?
False

Status in this test for CCCS(=O)(=O)NC(=O)C1(C)CCCN(C(=O)c2cccs2)C1 (stereo unspecified) ?
False
